Assay system: T1, FPR1 (UniProt P21462 1-350, limits assumed)
T1 sequence (looked up): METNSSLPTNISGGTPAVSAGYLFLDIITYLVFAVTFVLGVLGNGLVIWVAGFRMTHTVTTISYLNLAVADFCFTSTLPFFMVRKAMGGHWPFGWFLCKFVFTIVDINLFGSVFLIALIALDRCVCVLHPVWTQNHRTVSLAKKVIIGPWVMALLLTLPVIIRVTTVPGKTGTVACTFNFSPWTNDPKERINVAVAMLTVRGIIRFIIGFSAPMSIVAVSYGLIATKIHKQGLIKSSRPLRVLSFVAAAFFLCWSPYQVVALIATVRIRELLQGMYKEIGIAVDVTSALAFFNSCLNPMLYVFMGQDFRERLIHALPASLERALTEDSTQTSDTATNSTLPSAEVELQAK
Test method notes: cell-based or functional assay
Recorded EC50 for [Ca2+] values for a group of binders are listed next.

# annotated cases, reported EC50 for [Ca2+] shown
RMRYWYM (HELM PEPTIDE1{[CCCCCCCC(=O)[*:2]].R.M.R.Y.W.Y.[dM].[am]}$$$$V2.0; SMILES CCCCCCCC(=O)N[C@@H](CCCNC(=N)N)C(=O)N[C@@H](CCSC)C(=O)N[C@@H](CCCNC(=N)N)C(=O)N[C@@H](Cc1ccc(O)cc1)C(=O)N[C@@H](Cc1c[nH]c2ccccc12)C(=O)N[C@@H](Cc1ccc(O)cc1)C(=O)N[C@H](CCSC)C(N)=O) [peptide of SEQ ID NO 84] | > 10 µM
IKFKVM (HELM PEPTIDE1{I.K.F.K.V.[dM].[am]}$$$$V2.0; N-terminus assumed; SMILES CC[C@H](C)[C@H](N)C(=O)N[C@@H](CCCCN)C(=O)N[C@@H](Cc1ccccc1)C(=O)N[C@@H](CCCCN)C(=O)N[C@H](C(=O)N[C@H](CCSC)C(N)=O)C(C)C) [peptide of SEQ ID NO 132] | > 10 µM

The record that follows has no EC50 for [Ca2+] shown yet.
Ask | What does the data say about its EC50 for [Ca2+]? Entry: HKYKPM (HELM PEPTIDE1{[ac].H.K.Y.K.P.[dM].[am]}$$$$V2.0; SMILES CSCC[C@@H](NC(=O)[C@@H]1CCCN1C(=O)[C@H](CCCCN)NC(=O)[C@H](Cc1ccc(O)cc1)NC(=O)[C@H](CCCCN)NC(=O)[C@H](Cc1c[nH]cn1)NC(C)=O)C(N)=O) [peptide of SEQ ID NO 147]
Reply | > 10 µM
